- Experimental Target: T1, human Claudin18.2 (human)
- T1 construct: also called CLDN18.2
- Test Description: cell ELISA, Claudin18.2-expressing HEK293T cells
Value Type: EC50 (nM)
Give a bare numeral; the unit nM is implied.

419B5G9 (antibody, V domains shown, mouse hybridoma mAb) VH: DVQLVESGGGLVQPGGSRKLSCAASGFTFSTFGMHWVRQAPEKGLEWVAYISGGSTTIFYADTVKGRFTISRDNPKNTLFLQMTSVRSEDTAMYYCARFYYGNSFAYWGPGTLVTVST VL: DIVMTQSPSSLTVTAGEKVTMSCKSSQSLLNSGNQKNYLTWYQQKPGQPPKMLIYWASTRESGVPDRFTGSGSGTDFTLTISSVQAEDLAVYYCQNAYSYPLTFGAGTKLELK | 22.5
414H6G2 (antibody, V domains shown, mouse hybridoma mAb) VH: DVQLVESGGGLVQPGGSRKLSCAASGFTFSGFGMHWIRQTAEKGLEWVAYISSGSRPIYYADTVQGRFTISRDNPKNTLFLQMTSLRSEDTAMYFCARFYYGNSFDHWGQGTLVTVSA VL: DIVMTQSPSFLTVTAGEKVTMSCKSSQSLLNSGNQKNYLTWYQQKPGQPPKLLIYWASTRESGVPDRFTGSGSGTDFTLTISSVQAEDLALYYCQNAYSFPLTFGAGTKLELK | 12

Supply measured EC50 of 426D9F6 (antibody, V domains shown, mouse hybridoma mAb) VH: DVQLVESGGGLVQPGGSRKLSCAASGFTFSGFGMHWIRQTPEKGLEWVAYISSGSRPIYYADTVKGRFTISRDNPKNTLFLQMTSLRSEDTAMYFCARFYYGNSFDHWGQGTLVTVSA VL: DIVMTQSPSFLTVTAGEKVTMSCKSSQSLLNSGNQRNYLTWYQQKPGQPPKLLIYWASTRESGVPDRFTGSGSGTDFTLTVSSVQAEDLALYYCQNAYSFPLTFGAGTKLELK in your reply.
2.14
